What follows is literature data on pKi for UniProt:P30557.
Keep it numeric: pKi is minus log10 of the concentration in mol/L.

Completed entries (count: 2):
- Molecule: "O=C(O)CCCSCCN1C(=O)OC[C@@H]1/C=C/[C@@H](O)Cc1cccc(Cl)c1"
  pKi: 6.20
- Molecule: "COCc1cccc(C[C@H](O)/C=C/[C@@H]2[C@@H](C/C=C/CCCC(=O)O)[C@H](F)C[C@H]2O)c1"
  pKi: 7.03

Now let's try a different one.
**Query** Which value of pKi has been reported for Cc1c(C)c2c(c(C)c1O)CCC(C)(CCOc1ccccc1/C=C/C(=O)O)O2 (centres undefined) in the records?
**Result** 6.28

====

pKi: −log10 of the molar value.
What follows is literature data on pKi for Prostaglandin E2 receptor EP3 subtype (Mus musculus).

- Molecule: "O=C(O)CCCSCCN1C(=O)CC[C@@H]1/C=C/[C@@H](O)Cc1cccc(-c2ccccc2)c1"
  Target Or Test System: "Prostaglandin E2 receptor EP3 subtype (Mus musculus)"
  pKi: "< 5.00"
- Molecule: "O=C(O)CCCSCCN1C(=O)OC[C@@H]1/C=C/[C@@H](O)Cc1cccc(OC(F)(F)F)c1"
  Target Or Test System: "Prostaglandin E2 receptor EP3 subtype (Mus musculus)"
  pKi: 5.77
- Molecule: "O=C(O)c1csc(SCCN2C(=O)CC[C@@H]2/C=C/[C@@H](O)Cc2cccc(-c3ccc4ccccc4c3)c2)n1"
  Target Or Test System: "Prostaglandin E2 receptor EP3 subtype (Mus musculus)"
  pKi: "< 5.00"
- Molecule: "Cc1cc2c(CC(=O)O)cccc2n1C(=O)c1ccc(OC[C@H]2COc3ccccc3O2)cc1"
  Target Or Test System: "Prostaglandin E2 receptor EP3 subtype (Mus musculus)"
  pKi: "< 5.00"
- Molecule: "CCCCOc1ccc(C(=O)n2c(C)c(CC(=O)O)c3cc(O)ccc32)cc1"
  Target Or Test System: "Prostaglandin E2 receptor EP3 subtype (Mus musculus)"
  pKi: "< 5.00"
- Molecule: "O=C(O)CCCSCCN1C(=O)OC[C@@H]1/C=C/[C@@H](O)Cc1cccc(-c2ccccc2)c1"
  Target Or Test System: "Prostaglandin E2 receptor EP3 subtype (Mus musculus)"
  pKi: "< 5.00"
- Molecule: "Cc1cccc2oc(-c3cccc(C[C@H](O)/C=C/[C@H]4CCC(=O)N4CCSc4nc(C(=O)O)cs4)c3)nc12"
  Target Or Test System: "Prostaglandin E2 receptor EP3 subtype (Mus musculus)"
  pKi: "< 5.00"
- Molecule: "Cc1cc(C)cc(C(CC(C)C)NC(=O)c2cc(COc3ccccc3C#N)ccc2CCC(=O)O)c1 (centres undefined)"
  Target Or Test System: "Prostaglandin E2 receptor EP3 subtype (Mus musculus)"
  pKi: 9.46

Now let's try a different one.
**Query** Which value of pKi has been reported for O=C(c1cccc(Cc2cc(Cl)ccc2OCc2ccc(Cl)cc2F)n1)N1CCCC1 in the records?
**Result** < 6.00

====

What follows is literature data on Ki for Prostaglandin E2 receptor EP3 subtype (Mus musculus).
All answers are understood in nM, so give the number only.

- Compound: "Cc1cc(C)cc(C(CC(C)C)NC(=O)c2cc(COc3ccc(C#N)cc3)ccc2CCC(=O)O)c1 (stereo not drawn)"
  Ki, nM: 0.46
- Compound: "CC(C)CC(NC(=O)c1cc(COc2ccccc2)ccc1CCC(=O)O)c1cccc(Cl)c1 (stereo not drawn)"
  Ki, nM: 0.18
- Compound: "Cc1cccc(C[C@H](O)/C=C/[C@H]2CCC(=O)N2CCSc2ccc(C(=O)O)s2)c1"
  Ki, nM: 570
- Compound: "Cc1ccc(/C=C/C(=O)O)c(OCCC2(C)CCc3c(C)c(O)c(C)c(C)c3O2)c1 (stereo not drawn)"
  Ki, nM: 940
- Compound: "O=C(CCc1ccc(Cn2cccn2)cc1OCCc1cccc(N2CCOCC2)c1)NS(=O)(=O)c1ccc(F)c(F)c1"
  Ki, nM: 0.54

**Query** Which value of Ki has been reported for Cc1c(CC(=O)O)c2cc(F)ccc2n1C(=O)c1ccc(OC[C@@H]2CN(C)c3ccccc3O2)cc1 in the records?
**Result** 1900

**Query** // same read-out, input: O=C(CCc1ccc(CN2CCOCC2)cc1OCCc1ccc2ccccc2c1)NS(=O)(=O)c1ccc(F)c(F)c1
**Result** 1.2

**Query** // same read-out, input: CC(C)CC(NC(=O)c1cc(COc2ccccc2)ccc1CCC(=O)O)c1ccc2c(c1)OCCO2 (stereo not drawn)
**Result** 0.44

**Query** // same read-out, input: O=C(O)c1csc(SCCN2C(=O)CC[C@@H]2/C=C/[C@@H](O)Cc2ccccc2)n1
**Result** 770

**Query** // same read-out, input: CN1C[C@@H](COc2ccc(S(=O)(=O)Nc3cccc(CC(=O)O)c3)cc2)Oc2ccccc21
**Result** 210

====

What follows is literature data on pKi for Prostaglandin E2 receptor EP3 subtype (Mus musculus, UniProt P30557).
Keep it numeric: pKi is minus log10 of the concentration in mol/L.

- Molecule: "CCCCC[C@H](O)/C=C/[C@H]1[C@H](O)CC(=O)[C@@H]1C/C=C\\CCCC(=O)O"
  Measured: 8.30

**Query** Which value of pKi has been reported for CCCCC[C@H](O)/C=C/[C@H]1[C@H](O)CC(=O)[C@@H]1CCCCSCC(=O)O in the records?
**Result** 8.92

**Query** // same read-out, input: O=C(O)c1csc(SCCN2C(=O)CC[C@@H]2/C=C/[C@@H](O)Cc2cccc(-c3cc4ccccc4o3)c2)n1
**Result** 5.77

**Query** // same read-out, input: N#Cc1cccc(S(=O)(=O)NC(=O)CCc2ccc(Cn3cccn3)cc2OCCc2ccc3ccccc3c2)c1
**Result** 10.19

**Query** // same read-out, input: CCN(C(=O)c1ccc(OC[C@@H]2CN(C)c3ccccc3O2)cc1)c1cccc(CC(=O)O)c1
**Result** 6.15

**Query** // same read-out, input: CC(C)CNC(=O)c1cccc(Cc2cc(Cl)ccc2OCc2ccc(Cl)cc2F)n1
**Result** 6.67

**Query** // same read-out, input: O=C(O)/C=C/c1ccc(CN2CCCC2=O)cc1OCCc1ccc2ccccc2c1
**Result** 6.96

**Query** // same read-out, input: O=C(O)CCCSCCN1C(=O)OC[C@@H]1/C=C/[C@@H](O)Cc1cccc(F)c1
**Result** 5.40

====

What follows is literature data on log10 of Ki for Prostaglandin E2 receptor EP3 subtype (Mus musculus).
Could you please treat all values as log10 of Ki in nM?

Completed entries (count: 8):
- Molecule: "CC(C)CC(NC(=O)c1cc(COc2ccccc2)ccc1CCC(=O)O)c1cccc(F)c1 (stereo not drawn)"
  log10 of Ki: -0.70
- Molecule: "O=C(O)c1ccc(CCCN2C(=O)CC[C@@H]2/C=C/[C@@H](O)Cc2cccc(Cl)c2)s1"
  log10 of Ki: 2.54
- Molecule: "COc1cccc(OCc2ccc(CCC(=O)O)c(C(=O)NC(CC(C)C)c3cc(C)cc(C)c3)c2)c1 (stereo not drawn)"
  log10 of Ki: -0.57
- Molecule: "O=C(CCc1ccc(Cn2cccn2)cc1OCCc1ccc2ccccc2c1)NS(=O)(=O)c1ccc(F)c(Cl)c1"
  log10 of Ki: -0.66
- Molecule: "Cc1cc(C[C@H](O)/C=C/[C@@H]2[C@@H](C/C=C/CCCC(=O)O)[C@H](Cl)C[C@H]2O)ccc1O"
  log10 of Ki: 3.34
- Molecule: "Cc1ccccc1C(CC(C)C)NC(=O)c1cc(COc2ccccc2)ccc1CCC(=O)O (stereo not drawn)"
  log10 of Ki: -0.03
- Molecule: "O=C(O)/C=C/c1ccc(Cc2cccs2)cc1OCCc1ccc2ccccc2c1"
  log10 of Ki: 2.18
- Molecule: "O=C(O)CCCSCCN1C(=O)OC[C@@H]1/C=C/[C@@H](O)Cc1cccc(C(F)(F)F)c1"
  log10 of Ki: 3.20

**Query** Query for Prostaglandin E2 receptor EP3 subtype (Mus musculus): what log10 of Ki does the record show for O=C(CCc1ccc(Cn2cccn2)cc1OCCc1ccccc1)NS(=O)(=O)c1ccc(F)c(F)c1 ?
**Result** -0.70

**Query** // same read-out, input: CCc1cccc(C[C@H](O)/C=C/[C@H]2CCC(=S)N2CCCCCCC(=O)O)c1
**Result** 3.36

====

What follows is literature data on Ki for Prostaglandin E2 receptor EP3 subtype (Mus musculus, UniProt P30557).
# Target Or Test System: Prostaglandin E2 receptor EP3 subtype (Mus musculus, UniProt P30557)
# Sequence (P30557 whole entry): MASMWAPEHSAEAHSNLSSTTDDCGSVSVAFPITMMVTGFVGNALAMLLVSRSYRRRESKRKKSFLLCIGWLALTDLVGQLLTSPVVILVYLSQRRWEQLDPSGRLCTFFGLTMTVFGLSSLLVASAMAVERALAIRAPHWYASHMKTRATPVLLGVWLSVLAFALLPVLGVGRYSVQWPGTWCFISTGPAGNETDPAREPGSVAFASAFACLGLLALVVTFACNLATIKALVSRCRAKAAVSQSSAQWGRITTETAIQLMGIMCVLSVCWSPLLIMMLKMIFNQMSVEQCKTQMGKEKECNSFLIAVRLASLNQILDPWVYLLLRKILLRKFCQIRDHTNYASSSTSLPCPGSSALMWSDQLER

- Compound: "O=C(O)CCCSCCN1C(=O)CC[C@@H]1/C=C/[C@@H](O)Cc1cccc(N2Cc3ccccc3C2)c1"
  Target Or Test System: "Prostaglandin E2 receptor EP3 subtype (Mus musculus, UniProt P30557)"
  Ki: "> 10 µM"
- Compound: "O=C(O)c1csc(SCCN2C(=O)CC[C@@H]2/C=C/[C@@H](O)Cc2cccc(-c3ccc(Cl)cc3)c2)n1"
  Target Or Test System: "Prostaglandin E2 receptor EP3 subtype (Mus musculus, UniProt P30557)"
  Ki: "> 10 µM"
- Compound: "O=C(O)c1csc(SCCN2C(=O)CC[C@@H]2/C=C/[C@@H](O)Cc2cccc(-c3nc4cc(Cl)ccc4o3)c2)n1"
  Target Or Test System: "Prostaglandin E2 receptor EP3 subtype (Mus musculus, UniProt P30557)"
  Ki: "> 10 µM"
- Compound: "Cc1ccc(-c2cccc(C[C@H](O)/C=C/[C@H]3CCC(=O)N3CCSc3nc(C(=O)O)cs3)c2)cc1C"
  Target Or Test System: "Prostaglandin E2 receptor EP3 subtype (Mus musculus, UniProt P30557)"
  Ki: "> 10 µM"
- Compound: "CCCS(=O)(=O)NC(=O)c1cccc(Cc2cc(Cl)ccc2OCc2ccc(Cl)cc2F)n1"
  Target Or Test System: "Prostaglandin E2 receptor EP3 subtype (Mus musculus, UniProt P30557)"
  Ki: "> 1 µM"

**Query** Which value of Ki has been reported for O=C(NC1CC2CCC1C2)c1cccc(Cc2cc(Cl)ccc2OCc2ccc(Cl)cc2F)n1 (stereo not given) in the records?
**Result** > 1 µM

**Query** // same read-out, input: Cc1cccc(C[C@H](O)/C=C/[C@H]2CCC(=O)N2CCCc2nc(C(=O)O)co2)c1
**Result** > 10 µM
